system: 922993-354-T-J3-PDC complex spheroids, viability; test: Anticancer human tumor 922993-354-T-J3-PDC patient-derived endometrial carcinoma cell line growth inhibition [GQUAD]; details: second compound 0.316 µM; first compound 0.316 µM; hits give low values

[
  {
    "compound": "CC(=O)O[C@H]1C(=O)[C@@]2(C)[C@H]([C@H](OC(=O)c3ccccc3)[C@]3(O)C[C@H](OC(=O)[C@H](O)[C@@H](NC(=O)c4ccccc4)c4ccccc4)C(C)=C1C3(C)C)[C@]1(OC(C)=O)CO[C@@H]1C[C@@H]2O + Cc1[nH]c2ccc(F)cc2c1-c1nc2c3cccnc3c3ncccc3c2[nH]1",
    "unitString": "%",
    "viability, T/C": 136
  },
  {
    "compound": "CC[C@@]1(O)C(=O)OCc2c1cc1n(c2=O)Cc2cc3c(CN(C)C)c(O)ccc3nc2-1 + Cc1cnc(CNC(=O)c2c(=O)c3ccc(N4CCCN(C)CC4)nc3n3c2sc2ccccc23)cn1",
    "unitString": "%",
    "viability, T/C": 40.3
  },
  {
    "compound": "Nc1ccn(C2OC(CO)C(O)C2(F)F)c(=O)n1 (stereo not given) + Cc1[nH]c2ccc(F)cc2c1-c1nc2c3cccnc3c3ncccc3c2[nH]1",
    "unitString": "%",
    "viability, T/C": 24
  },
  {
    "compound": "O=C(NO)c1cnc(N2CCN(S(=O)(=O)c3ccc4ccccc4c3)CC2)nc1 + CN(C)c1ccc(Nc2c3ccc(NC(=O)CCN4CCCC4)cc3nc3cc(NC(=O)CCN4CCCC4)ccc23)cc1",
    "unitString": "%",
    "viability, T/C": 60.8
  },
  {
    "compound": "COc1ncnc(C2CC2)c1-c1ncc2cnn(Cc3ccc(-c4nc(C(F)(F)F)cn4C(C)C)cc3)c2n1 + CN(C)c1ccc(Nc2c3ccc(NC(=O)CCN4CCCC4)cc3nc3cc(NC(=O)CCN4CCCC4)ccc23)cc1",
    "unitString": "%",
    "viability, T/C": 74.2
  }
]

----------
test system: 922993-354-T-J3-PDC complex spheroids, viability; experiment: Anticancer human tumor 922993-354-T-J3-PDC cell line growth inhibition [GQUAD]; settings: second compound 0.1 µM; first compound 1 µM; hits give low values;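 further: spheroids exposed to compounds for seven days; 100% = DMSO vehicle control viability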

[
  {
    "compound": "Cc1cccc(N(C)C(=O)C2C(O)CCN2c2nc(C)cc(C(F)(F)F)c2C#N)c1 (stereo unspecified) + Cc1[nH]c2ccc(F)cc2c1-c1nc2c3cccnc3c3ncccc3c2[nH]1",
    "system": "922993-354-T-J3-PDC complex spheroids, viability",
    "unitString": "%",
    "viability, T/C": 135
  },
  {
    "compound": "C=CC(=O)N1CCN(c2nc(=O)n(-c3c(C)ccnc3C(C)C)c3nc(-c4c(O)cccc4F)c(F)cc23)C(C)C1 (stereo unspecified) + Cc1[nH]c2ccc(F)cc2c1-c1nc2c3cccnc3c3ncccc3c2[nH]1",
    "system": "922993-354-T-J3-PDC complex spheroids, viability",
    "unitString": "%",
    "viability, T/C": 127
  },
  {
    "compound": "COc1ccc([C@@H](O)c2cc(-c3ncnc4cc(N5CCOCC5)ccc34)c(F)cc2Cl)nn1 + CN(C)c1ccc(Nc2c3ccc(NC(=O)CCN4CCCC4)cc3nc3cc(NC(=O)CCN4CCCC4)ccc23)cc1",
    "system": "922993-354-T-J3-PDC complex spheroids, viability",
    "unitString": "%",
    "viability, T/C": 88.2
  },
  {
    "compound": "CCCS(=O)(=O)Nc1ccc(F)c(C(=O)c2c[nH]c3ncc(-c4ccc(Cl)cc4)cc23)c1F + CN(C)c1ccc(Nc2c3ccc(NC(=O)CCN4CCCC4)cc3nc3cc(NC(=O)CCN4CCCC4)ccc23)cc1",
    "system": "922993-354-T-J3-PDC complex spheroids, viability",
    "unitString": "%",
    "viability, T/C": 80.3
  },
  {
    "compound": "COc1cccc2c1C(=O)c1c(O)c3c(c(O)c1C2=O)CC(O)(C(=O)CO)CC3OC1CC(N)C(O)C(C)O1 (stereo unspecified) + CN(C)c1ccc(Nc2c3ccc(NC(=O)CCN4CCCC4)cc3nc3cc(NC(=O)CCN4CCCC4)ccc23)cc1",
    "system": "922993-354-T-J3-PDC complex spheroids, viability",
    "unitString": "%",
    "viability, T/C": 87.8
  },
  {
    "compound": "O=c1[nH]cc(F)c(=O)[nH]1 + Cc1cnc(CNC(=O)c2c(=O)c3ccc(N4CCCN(C)CC4)nc3n3c2sc2ccccc23)cn1",
    "system": "922993-354-T-J3-PDC complex spheroids, viability",
    "unitString": "%",
    "viability, T/C": 61.5
  },
  {
    "compound": "Nc1ccn(C2OC(CO)C(O)C2(F)F)c(=O)n1 (stereo unspecified) + CN(C)c1ccc(Nc2c3ccc(NC(=O)CCN4CCCC4)cc3nc3cc(NC(=O)CCN4CCCC4)ccc23)cc1",
    "system": "922993-354-T-J3-PDC complex spheroids, viability",
    "unitString": "%",
    "viability, T/C": 10.8
  },
  {
    "compound": "O=c1[nH]cc(F)c(=O)[nH]1 + CN(C)c1ccc(Nc2c3ccc(NC(=O)CCN4CCCC4)cc3nc3cc(NC(=O)CCN4CCCC4)ccc23)cc1",
    "system": "922993-354-T-J3-PDC complex spheroids, viability",
    "unitString": "%",
    "viability, T/C": 81
  },
  {
    "compound": "COc1ncnc(C2CC2)c1-c1ncc2cnn(Cc3ccc(-c4nc(C(F)(F)F)cn4C(C)C)cc3)c2n1 + CN(C)c1ccc(Nc2c3ccc(NC(=O)CCN4CCCC4)cc3nc3cc(NC(=O)CCN4CCCC4)ccc23)cc1",
    "system": "922993-354-T-J3-PDC complex spheroids, viability",
    "unitString": "%",
    "viability, T/C": 86.6
  },
  {
    "compound": "CC1COCCN1c1cc(-c2ccnn2C)c2ccnc(-c3ccn[nH]3)c2n1 (stereo unspecified) + CN(C)c1ccc(Nc2c3ccc(NC(=O)CCN4CCCC4)cc3nc3cc(NC(=O)CCN4CCCC4)ccc23)cc1",
    "system": "922993-354-T-J3-PDC complex spheroids, viability",
    "unitString": "%",
    "viability, T/C": 18.2
  },
  {
    "compound": "COc1cccc2c1C(=O)c1c(O)c3c(c(O)c1C2=O)CC(O)(C(=O)CO)CC3OC1CC(N)C(O)C(C)O1 (stereo unspecified) + Cc1[nH]c2ccc(F)cc2c1-c1nc2c3cccnc3c3ncccc3c2[nH]1",
    "system": "922993-354-T-J3-PDC complex spheroids, viability",
    "unitString": "%",
    "viability, T/C": 66.3
  }
]
